Provenance of the data: paper PMC12615863

- protocol text: Biodistribution in mice bearing PC-3 xenografts
- Format: in vivo, Balb/c nu/nu mice
- conditions used: mouse, total radioactivity; gastrointestinal tract with content; PC-3 xenografted Balb/c nu/nu mice, iv 100 pmol; 24 h pi; mean ± SD, n = 4; read-out: GI activity uptake
reported property: tissue uptake dose at 24 h (%ID)
Field format: number, assumed %ID, no unit text.

molecule: CC(C)C[C@H](NC(=O)C[C@H](O)[C@H](CC(C)C)NC(=O)[C@H](Cc1c[nH]cn1)NC(=O)CN(C)C(=O)[C@@H](NC(=O)[C@H](C)NC(=O)[C@](C)(Cc1c[nH]c2ccccc12)NC(=O)[C@H](CCC(N)=O)NC(=O)[C@@H](Cc1ccccc1)NC(=O)CN1CCC(NC(=O)COCCOCCNC(=O)CN2CCN(CC(=O)O)CCN(CC(=O)O)CCN(CC(=O)O)CC2)CC1)C(C)C)C(N)=O [[^177Lu]Lu-PKB3, metal not drawn]
tissue uptake dose at 24 h, %ID: 0.16

Moving on to another molecule below.
Qu. Which tissue uptake dose at 24 h is reported for this molecule? CC(C)C[C@H](NC(=O)C[C@H](O)[C@H](CC(C)C)NC(=O)[C@H](Cc1c[nH]cn1)NC(=O)CN(C)C(=O)[C@@H](NC(=O)[C@H](C)NC(=O)[C@](C)(Cc1c[nH]c2ccccc12)NC(=O)[C@H](CCC(N)=O)NC(=O)[C@@H](Cc1ccccc1)NC(=O)CN1CCC(NC(=O)COCCOCCNC(=O)CCC(C(=O)O)N2CCN(CC(=O)O)CCN(CC(=O)O)CCN(CC(=O)O)CC2)CC1)C(C)C)C(N)=O (some centres unmarked) [[^177Lu]Lu-PKB2, metal not drawn]
Ans. 0.3

* * *

- protocol text: Biodistribution in mice bearing PC-3 xenografts
- Type: in vivo, Balb/c nu/nu mice
- conditions used: Balb/c nu/nu, mouse, stomach, iv, 100 pmol, total radioactivity, PC-3 xenografted Balb/c nu/nu mice, iv 100 pmol; 2 h pi; mean ± SD, n = 4; read-out: Stomach activity uptake
- Procedure: Each mouse was xenografted with a subcutaneous injection of 8 × 10⁶ PC-3 cells in the right hind leg. After approximately 4 weeks, the animals were injected into the tail vein with 100 µL of radiopeptide (100 pmol—110–130 kBq, diluted in PBS/BSA). Four animals were used for each time point per peptide. […] At the determined time points, the mice were euthanized, organs were collected and weighed, and their activity content was measured in the gamma counter. […]
reported property: tissue uptake at 2 h (%ID/g)
A number alone suffices; assume %ID/g.

Qu. Which tissue uptake at 2 h value belongs to CC(C)C[C@H](NC(=O)C[C@H](O)[C@H](CC(C)C)NC(=O)[C@H](Cc1c[nH]cn1)NC(=O)CN(C)C(=O)[C@@H](NC(=O)[C@H](C)NC(=O)[C@](C)(Cc1c[nH]c2ccccc12)NC(=O)[C@H](CCC(N)=O)NC(=O)[C@@H](Cc1ccccc1)NC(=O)CN1CCC(NC(=O)COCCOCCNC(=O)CN2CCN(CC(=O)O)CCN(CC(=O)O)CCN(CC(=O)O)CC2)CC1)C(C)C)C(N)=O [[^177Lu]Lu-PKB3, metal not drawn] ?
Ans. 2.5

* * *

- protocol text: Biodistribution in mice bearing PC-3 xenografts
- Assay type: in vivo, Balb/c nu/nu mice
- conditions used: Balb/c nu/nu, mouse, gastrointestinal tract with content, iv, 100 pmol, total radioactivity; PC-3 xenografted mice, all time points (2, 4, 24 h pi); read-out: activity uptake for the GI with content
reported property: tissue uptake dose

Qu. Bench note: what tissue uptake dose did CC(C)C[C@H](NC(=O)C[C@H](O)[C@H](CC(C)C)NC(=O)[C@H](Cc1c[nH]cn1)NC(=O)CN(C)C(=O)[C@@H](NC(=O)[C@H](C)NC(=O)[C@](C)(Cc1c[nH]c2ccccc12)NC(=O)[C@H](CCC(N)=O)NC(=O)[C@@H](Cc1ccccc1)NC(=O)CN1CCC(NC(=O)COCCOCCNC(=O)CCC(C(=O)O)N2CCN(CC(=O)O)CCN(CC(=O)O)CCN(CC(=O)O)CC2)CC1)C(C)C)C(N)=O (stereo partly shown) [[^177Lu]Lu-PKB2, metal not drawn] show?
Ans. < 2 %ID

* * *

- protocol text: Biodistribution in mice bearing PC-3 xenografts
- Assay type: in vivo, Balb/c nu/nu mice
- conditions used: Balb/c nu/nu, mouse, bone, iv, total radioactivity, PC-3 xenografted Balb/c nu/nu mice, iv 100 pmol; 2 h pi blocked (co-injected 100-fold molar excess NOTA-PEG2-RM26); mean ± SD, n = 3; read-out: Bone activity uptake
reported property: tissue uptake at 2 h (%ID/g)
Unit %ID/g implied. Number only.

Qu. Fill blank: measured tissue uptake at 2 h of the compound CC(C)C[C@H](NC(=O)C[C@H](O)[C@H](CC(C)C)NC(=O)[C@H](Cc1c[nH]cn1)NC(=O)CN(C)C(=O)[C@@H](NC(=O)[C@H](C)NC(=O)[C@](C)(Cc1c[nH]c2ccccc12)NC(=O)[C@H](CCC(N)=O)NC(=O)[C@@H](Cc1ccccc1)NC(=O)CN1CCC(NC(=O)COCCOCCNC(=O)CCC(C(=O)O)N2CCN(CC(=O)O)CCN(CC(=O)O)CCN(CC(=O)O)CC2)CC1)C(C)C)C(N)=O (some centres unmarked) [[^177Lu]Lu-PKB2, metal not drawn] is ____.
Ans. 0.13

Qu. Entry to check: CC(C)C[C@H](NC(=O)C[C@H](O)[C@H](CC(C)C)NC(=O)[C@H](Cc1c[nH]cn1)NC(=O)CN(C)C(=O)[C@@H](NC(=O)[C@H](C)NC(=O)[C@](C)(Cc1c[nH]c2ccccc12)NC(=O)[C@H](CCC(N)=O)NC(=O)[C@@H](Cc1ccccc1)NC(=O)CN1CCC(NC(=O)COCCOCCNC(=O)CN2CCN(CC(=O)O)CCN(CC(=O)O)CCN(CC(=O)O)CC2)CC1)C(C)C)C(N)=O [[^177Lu]Lu-PKB3, metal not drawn]
Ans. 0.11

* * *

- protocol text: Biodistribution in mice bearing PC-3 xenografts
- Type: in vivo, Balb/c nu/nu mice
- conditions used: Balb/c nu/nu, mouse, small intestine, iv, 100 pmol, total radioactivity, PC-3 xenografted Balb/c nu/nu mice, iv 100 pmol; 4 h pi; mean ± SD, n = 4; read-out: Small Int. activity uptake
reported property: tissue uptake at 4 h (%ID/g)
# output: bare number, implied unit %ID/g

compound: CC(C)C[C@H](NC(=O)C[C@H](O)[C@H](CC(C)C)NC(=O)[C@H](Cc1c[nH]cn1)NC(=O)CN(C)C(=O)[C@@H](NC(=O)[C@H](C)NC(=O)[C@](C)(Cc1c[nH]c2ccccc12)NC(=O)[C@H](CCC(N)=O)NC(=O)[C@@H](Cc1ccccc1)NC(=O)CN1CCC(NC(=O)COCCOCCNC(=O)CCC(C(=O)O)N2CCN(CC(=O)O)CCN(CC(=O)O)CCN(CC(=O)O)CC2)CC1)C(C)C)C(N)=O (some centres unmarked) [[^177Lu]Lu-PKB2, metal not drawn]
tissue uptake at 4 h / %ID/g: 0.5

--- query ---
Qu. Look up tissue uptake at 4 h: CC(C)C[C@H](NC(=O)C[C@H](O)[C@H](CC(C)C)NC(=O)[C@H](Cc1c[nH]cn1)NC(=O)CN(C)C(=O)[C@@H](NC(=O)[C@H](C)NC(=O)[C@](C)(Cc1c[nH]c2ccccc12)NC(=O)[C@H](CCC(N)=O)NC(=O)[C@@H](Cc1ccccc1)NC(=O)CN1CCC(NC(=O)COCCOCCNC(=O)CN2CCN(CC(=O)O)CCN(CC(=O)O)CCN(CC(=O)O)CC2)CC1)C(C)C)C(N)=O [[^177Lu]Lu-PKB3, metal not drawn]
Ans. 1

* * *

Each item that follows carries a reported tissue uptake at 2 h.
- protocol text: Biodistribution in mice bearing PC-3 xenografts
- Format: in vivo, Balb/c nu/nu mice
- conditions used: Balb/c nu/nu, mouse, spleen, iv, 100 pmol, total radioactivity, PC-3 xenografted Balb/c nu/nu mice, iv 100 pmol; 2 h pi; mean ± SD, n = 4; read-out: Spleen activity uptake
I only need the number, in %ID/g, no unit after it.

compound: CC(C)C[C@H](NC(=O)C[C@H](O)[C@H](CC(C)C)NC(=O)[C@H](Cc1c[nH]cn1)NC(=O)CN(C)C(=O)[C@@H](NC(=O)[C@H](C)NC(=O)[C@](C)(Cc1c[nH]c2ccccc12)NC(=O)[C@H](CCC(N)=O)NC(=O)[C@@H](Cc1ccccc1)NC(=O)CN1CCC(NC(=O)COCCOCCNC(=O)CN2CCN(CC(=O)O)CCN(CC(=O)O)CCN(CC(=O)O)CC2)CC1)C(C)C)C(N)=O [[^177Lu]Lu-PKB3, metal not drawn]
measured result: 0.4

Pending compound:
Qu. // tissue uptake at 2 h lookup, key: CC(C)C[C@H](NC(=O)C[C@H](O)[C@H](CC(C)C)NC(=O)[C@H](Cc1c[nH]cn1)NC(=O)CN(C)C(=O)[C@@H](NC(=O)[C@H](C)NC(=O)[C@](C)(Cc1c[nH]c2ccccc12)NC(=O)[C@H](CCC(N)=O)NC(=O)[C@@H](Cc1ccccc1)NC(=O)CN1CCC(NC(=O)COCCOCCNC(=O)CCC(C(=O)O)N2CCN(CC(=O)O)CCN(CC(=O)O)CCN(CC(=O)O)CC2)CC1)C(C)C)C(N)=O (some centres unmarked) [[^177Lu]Lu-PKB2, metal not drawn]
Ans. 0.15
